B1: glmS ribozyme (parent)
chain: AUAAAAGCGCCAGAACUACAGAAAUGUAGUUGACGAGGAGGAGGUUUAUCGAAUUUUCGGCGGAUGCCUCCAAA

Variants of: B1
Assay: self-cleavage kobs at 640 uM GlcN6P; higher = faster cleavage; RNA array
Settings: with glucosamine-6-phosphate
Fewer inactive variants are shown than the library holds.
Hi, to clarify the labels: met covers self-cleavage kobs at 640 uM GlcN6P from 0.0005 s⁻¹ upward, not met covers anything below 0.0005 s⁻¹.

Decide: is the reported value of self-cleavage kobs at 640 uM GlcN6P for AUAAAAGCGCCAAAACUACAGAAAUGUAGUAAACGAGGAGGAGGUUUAUGGAAUUUUCGGCGGAUGGCUCCAAA [G13A U31A G32A C50G C67G] equal to or greater than 0.0005 s⁻¹?
not met

Decide: is the reported value of self-cleavage kobs at 640 uM GlcN6P for AUAAAGGCGCCAGAACUACAGAAAUGUAGUUGACGAGGAGGAGGUUUAUUGAAUCUUCGGCGGAUGCCUCCAAA [A6G C50U U55C] equal to or greater than 0.0005 s⁻¹?
not met

Decide: is the reported value of self-cleavage kobs at 640 uM GlcN6P for AUAAAAGCGACAGAACUACAGAAAUGUAGUUGACGAGGAGGAGGUUUAUCGAAGUUUCGGCGGACGCCUCCAAA [C10A U54G U65C] equal to or greater than 0.0005 s⁻¹?
not met

Decide: is the reported value of self-cleavage kobs at 640 uM GlcN6P for AUAAAAGCGCCAGAACUACAGAAAUGUAGUUGACGAGGAGUAGGUGUCCCGAAUUUUCGGCGGAUGCCUCCAAA [G41U U46G A48C U49C] equal to or greater than 0.0005 s⁻¹?
not met

Decide: is the reported value of self-cleavage kobs at 640 uM GlcN6P for AUAAAAGCGCCAGAACUACAGAAAUGUAGUUGAAGAGGAGGAGGUUUAUCGAAUUUUCGGCGGAUGCCUCCAAA [C34A] equal to or greater than 0.0005 s⁻¹?
not met

Decide: is the reported value of self-cleavage kobs at 640 uM GlcN6P for AUAAAAGCUCCAGAACUACAGAAAUGUAGUUCACGAGGAGGAGGUUUAUCGAAUUUUCGGCGGAUGCCUCCAAA [G9U G32C] equal to or greater than 0.0005 s⁻¹?
not met

Decide: is the reported value of self-cleavage kobs at 640 uM GlcN6P for AUAAAAGCGCCAGAACUACAGAAAUGUAGUUGACGAGGAGUAGGUUUAUCGAAUUUUCGGCGGAUUCCUCCAAA [G41U G66U] equal to or greater than 0.0005 s⁻¹?
not met

Decide: is the reported value of self-cleavage kobs at 640 uM GlcN6P for AUAAAAGCGCCAGAACUACAGAAAUGUAGUUGACAAGGAGGAGGUUUAUCGAAUUUUCGGCGGAUGACUCCAAA [G35A C67A] equal to or greater than 0.0005 s⁻¹?
not met

Decide: is the reported value of self-cleavage kobs at 640 uM GlcN6P for AUAAAAGCGCCAGAACUACAGAAAUGUAGUUGACGAGGAGCAGGGUUAUCGAAUUUUCGGCGGAUGCCUCUAAA [G41C U45G C71U] equal to or greater than 0.0005 s⁻¹?
not met

Decide: is the reported value of self-cleavage kobs at 640 uM GlcN6P for AUAAAAGCGCCAGAACUACAGAAAUGUAGUUGACGAGGGGGAGGUUUAUCGAAGUUUCGGCGGAUGCCUCCAAA [A39G U54G] equal to or greater than 0.0005 s⁻¹?
met

Decide: is the reported value of self-cleavage kobs at 640 uM GlcN6P for AUAAAAGCGCCAGAACUACAGAAAUGUAGUAGACGAGGCGGAGGUUUAUCGAAUUUUCGGCGGAUGCCUCCAAA [U31A A39C] equal to or greater than 0.0005 s⁻¹?
met

Decide: is the reported value of self-cleavage kobs at 640 uM GlcN6P for AUAAAAGCGCCAGAACUACAGAAAUGUAGUUGACGAGGCGGAGUUCUAUCGAAUUUUCGUCGCAUGCAUCAAAA [A39C G44U U46C G60U G63C C68A C71A] equal to or greater than 0.0005 s⁻¹?
not met

Decide: is the reported value of self-cleavage kobs at 640 uM GlcN6P for AUAAAAGCGCCAGAACUACAGAAAUGUAGUUGACGAGGAGGAGGUUUAUCGAAGAUUCGGCGGAUGCCUGCAAA [U54G U55A C70G] equal to or greater than 0.0005 s⁻¹?
not met

Decide: is the reported value of self-cleavage kobs at 640 uM GlcN6P for AUAAAAGCUCCAGAACUACAGAAAUGUAGUUGACGAGGAGGAGGUUUAGCGCAUUUUCGGCGGCUGCCUCCAAA [G9U U49G A52C A64C] equal to or greater than 0.0005 s⁻¹?
not met

Decide: is the reported value of self-cleavage kobs at 640 uM GlcN6P for AUAAAAACGCGAGAACUACAGAAAUGUAGUUGACGAGGAUGAGGUUUAUCGAAUUUUCGGCGGAUGCCUCCAAA [G7A C11G G40U] equal to or greater than 0.0005 s⁻¹?
not met

Decide: is the reported value of self-cleavage kobs at 640 uM GlcN6P for AUAAAAGCGCCAGAACUACAGAAAUGUAGUCGACGAGGAGGAGGUUAAUCGAAUUUUCGGCGGAUGCCUCCAAA [U31C U47A] equal to or greater than 0.0005 s⁻¹?
met

Decide: is the reported value of self-cleavage kobs at 640 uM GlcN6P for AUAAAAGCGCCAGAACUACAGAAAUGUAGUGGACGAGGUGGAGGUUUAUCGAAUUUUCGGCGGAUGCCUCCAAA [U31G A39U] equal to or greater than 0.0005 s⁻¹?
met

Decide: is the reported value of self-cleavage kobs at 640 uM GlcN6P for AUAAAAGCGCCAGAACUACAGAAAUGUAGUUGCCGAGGAGGAGGUUUAUCGAAUUUUCCGGGGGUGCCUCCAAA [A33C G59C C61G A64G] equal to or greater than 0.0005 s⁻¹?
not met

Decide: is the reported value of self-cleavage kobs at 640 uM GlcN6P for AUAAAAUCGCCAGAACUACAGAAAUGUAGUUGACGAGGAGGAGGUUUAGCCAAUUUUCGGCGGCUCCCUCCAAA [G7U U49G G51C A64C G66C] equal to or greater than 0.0005 s⁻¹?
not met

Decide: is the reported value of self-cleavage kobs at 640 uM GlcN6P for AUAAAAGCGCCACAACUACAGAAAUGUAGUUGAUGAGGAGGAGGUUUAUCGAAUUUUCGGCGGAUGCCUCCAAA [G13C C34U] equal to or greater than 0.0005 s⁻¹?
not met

Decide: is the reported value of self-cleavage kobs at 640 uM GlcN6P for AUAAAAGCGCCAGAACUACAGAAAUGUAGUUGACGAGGGGGAGGUUUAUCGAGUUUUCGGCGGAUGCCUCCAAA [A39G A53G] equal to or greater than 0.0005 s⁻¹?
met

Decide: is the reported value of self-cleavage kobs at 640 uM GlcN6P for AUAAAAGGGCCAGAAGUACAGAAAUGUAGUUGACGAGAAGGAGGUUUAUCGAAUUUUCGGCGGAUGCCUCCAAA [C8G C16G G38A] equal to or greater than 0.0005 s⁻¹?
not met
